Target: FLJ14797-derived protein (γ-tubulin ring complex protein) (Homo sapiens, UniProt Q9UGJ1)
Construct: histidine tag (N); FLAG tag (N); made in house; host or cells: cell-free protein synthesis system (PROTEIOS; TOYOBO) using wheat germ extracts
Sequence (Q9UGJ1 whole entry, one chain of several): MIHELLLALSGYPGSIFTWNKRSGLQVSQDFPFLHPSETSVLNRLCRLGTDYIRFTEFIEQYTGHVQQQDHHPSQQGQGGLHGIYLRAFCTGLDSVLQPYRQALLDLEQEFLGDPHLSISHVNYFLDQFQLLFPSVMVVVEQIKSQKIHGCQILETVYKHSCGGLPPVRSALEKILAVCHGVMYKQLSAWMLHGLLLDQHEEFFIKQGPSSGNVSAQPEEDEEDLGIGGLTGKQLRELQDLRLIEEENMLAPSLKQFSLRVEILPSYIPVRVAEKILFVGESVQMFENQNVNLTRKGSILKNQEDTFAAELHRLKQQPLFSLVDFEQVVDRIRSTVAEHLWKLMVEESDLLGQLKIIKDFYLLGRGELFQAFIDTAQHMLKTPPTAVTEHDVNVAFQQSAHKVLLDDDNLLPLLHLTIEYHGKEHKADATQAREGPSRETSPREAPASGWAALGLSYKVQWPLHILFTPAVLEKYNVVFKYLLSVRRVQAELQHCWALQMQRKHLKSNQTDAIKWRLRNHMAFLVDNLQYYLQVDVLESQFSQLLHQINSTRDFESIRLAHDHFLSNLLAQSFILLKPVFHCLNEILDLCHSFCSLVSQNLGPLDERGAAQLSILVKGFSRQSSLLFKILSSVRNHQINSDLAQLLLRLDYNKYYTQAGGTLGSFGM
Test: Biacore S51 surface plasmon resonance analysis of interaction between compound and immobilized FLJ14797-derived protein
Assay type: binding
Conditions: Biacore S51, FLJ14797-derived protein, same way as Example 1; Table 1; read-out: KD
Method: […] The surface of a CM5 sensor chip for S51 commercially available from Biacore was converted to NTA using IM EDC, 1.33 M NHS, and 16 mg/ml AB-NTA (pH 9.2) to make an NTA sensor chip for S51. […] Compounds to be measured were prepared by making ½ serial dilutions (9 points) from 62.5 uM to 0.244 uM solutions. […]
pKd: −log10 of the molar value.
READOUT: pKd

O=C1NC(=O)C(Cc2ccc(OCCOC3CCCCC3)cc2)S1 (stereo not drawn) ... 4.86

1. O=C1NC(=O)C(Cc2ccc(OCCOC3CCCC3)cc2)S1 (stereo not drawn)
2. CC1(OCCOc2ccc(CC3SC(=O)NC3=O)cc2)CCCCC1 (stereo not drawn)
Q: Consider 1 and 2 . Which of these has its pKd at a higher number? Your choice should be expressed through its label.
Ans: 2

---

Molecular target: FLJ14797-derived protein (γ-tubulin ring complex protein) (Homo sapiens, UniProt Q9UGJ1)
Construct: histidine tag (N); FLAG tag (N); made in house; host or cells: cell-free protein synthesis system (PROTEIOS; TOYOBO) using wheat germ extracts
Experiment: Biacore S51 surface plasmon resonance analysis of interaction between compound and immobilized FLJ14797-derived protein
Type: binding
Conditions: Biacore S51, FLJ14797-derived protein immobilized on NTA chip, compound 62.5 uM to 0.244 uM; Example 1; read-out: binding dissociation constant KD
READOUT: pKd
Note on units: pKd is unitless, being -log10 of a concentration expressed in mol/L.

Q: Please give the measured pKd for this compound: CCc1ccc(CCOc2ccc(CC3SC(=O)NC3=O)cc2)nc1 (stereo not shown) [pioglitazone, reference compound]
Ans: 5.04
